# PROTOCOL DETAILS: Pharmacokinetic study of oral administration in male beagle dogs
# Format: in vivo
# CONDITION NOTES: dog, 5 mg/kg, PO, 5.0 mpk (calculated in free state), 0.5% MC aqueous suspension, plasma
OBSERVED PROPERTY: AUC(0-t) at 24 h (µM·h)

SUBSTANCE SMILES: CSc1sc(C(N)=O)c2c1-c1nc(Nc3cc(N4CCN(C)CC4)ccc3OC(F)(F)F)ncc1CC2
OBSERVED PROPERTY: AUC(0-t) at 24 h
UNITS OF MEASURE: µM·h
RECORDED NUMBER: 1.59

====

# PROTOCOL DETAILS: Pharmacokinetic study of oral administration in male beagle dogs
# Format: in vivo
# CONDITION NOTES: dog, plasma, po, 5 mg/kg, 5.0 mpk (calculated in free state), 0.5% MC aqueous suspension
OBSERVED PROPERTY: half-life (h)

SUBSTANCE SMILES: CSc1sc(C(N)=O)c2c1-c1nc(Nc3cc(N4CCN(C)CC4)ccc3OC(F)(F)F)ncc1CC2
RECORDED NUMBER: 5

====

# PROTOCOL DETAILS: Pharmacokinetic study of oral administration in male beagle dogs
# Format: in vivo
# CONDITION NOTES: dog, plasma, po, 5 mg/kg, 5.0 mpk (calculated in free state), 0.5% MC aqueous suspension
OBSERVED PROPERTY: AUC(0-t) at 24 h (µM·h)

SUBSTANCE SMILES: CSc1sc(C(N)=O)c2c1-c1nc(Nc3cc(N4CCN(C)CC4)ccc3OC(F)(F)F)ncc1CC2
RECORDED NUMBER: 1.11
